Molecular target: acetylcholinesterase (Homo sapiens, UniProt P22303)
Sequence (P22303 32-614, species assumed): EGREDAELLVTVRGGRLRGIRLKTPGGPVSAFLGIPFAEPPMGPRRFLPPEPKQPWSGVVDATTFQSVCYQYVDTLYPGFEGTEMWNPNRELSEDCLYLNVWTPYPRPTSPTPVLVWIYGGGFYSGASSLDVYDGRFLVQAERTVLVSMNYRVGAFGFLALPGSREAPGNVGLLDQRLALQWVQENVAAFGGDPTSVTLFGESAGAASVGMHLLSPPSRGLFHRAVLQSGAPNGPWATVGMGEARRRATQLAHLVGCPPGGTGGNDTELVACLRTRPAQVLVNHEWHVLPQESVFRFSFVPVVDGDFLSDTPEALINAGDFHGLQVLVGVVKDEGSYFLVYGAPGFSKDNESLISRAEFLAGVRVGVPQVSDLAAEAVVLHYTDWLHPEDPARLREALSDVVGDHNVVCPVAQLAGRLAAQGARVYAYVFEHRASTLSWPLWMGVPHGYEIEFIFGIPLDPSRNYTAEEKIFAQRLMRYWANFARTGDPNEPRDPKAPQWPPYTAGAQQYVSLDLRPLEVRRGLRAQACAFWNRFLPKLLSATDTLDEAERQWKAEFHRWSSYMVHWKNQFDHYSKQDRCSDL
quantity measured: IC50 (nM)
Record the value in nM, omitting the unit from your answer.

Problem: Query: IC50; subject: CCOP(=S)(OCC)Oc1nc(Cl)c(Cl)cc1Cl [Chloropyrifos]
Solution: 0.285

====

Could you please report measured IC20 for the items listed next?
Biological target: UniProtKB P22303
Assay: biochemical
Assay type: biochemical
Conditions: read-out: Porex Dot Test IC20
Record the value in ng/mL, omitting the unit from your answer.

Problem: Give IC20 (UniProtKB P22303) of the following molecule: CCOP(=S)(OCC)Oc1cc(C)nc(C(C)C)n1 [Diazinon]
Solution: 0.14

Problem: Please answer likewise for CCOP(=S)(OCC)SCSC(C)(C)C [Terbufos]
Solution: 143

Problem: Please answer likewise for CNC(=O)Oc1ccccc1OC(C)C [Baygon (propoxur), propoxur]
Solution: 9

Problem: Please answer likewise for CNC(=O)O/N=C/C(C)(C)SC [Aldicarb]
Solution: 33

Problem: Please answer likewise for CNC(=O)Oc1cccc2c1OC(C)(C)C2 [Carbofuran]
Solution: 0.4

Problem: Please answer likewise for CCOP(=S)(OCC)SCCSCC [Disulfoton]
Solution: 0.5

Problem: Please answer likewise for CNC(=O)Oc1cccc2ccccc12 [Carbaryl]
Solution: 9

Problem: Please answer likewise for CNC(=O)ON=C(C)SC [Methomyl]
Solution: 0.011
